Origin of the recorded values: PubChem BioAssay

// values below are reported GFP response relative to DMSO
# method.description: LAP4-GFP expression modulators in yeast, confirmation, cell-based, cherry picks, flow cytometry, mother/daughter gates (AID 2271);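 also: ratio of sample to DMSO plate mean so 100% equals DMSO level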
# assay.context: S. cerevisiae LAP4-GFP strain, 3 h, measured here: mother cell gate response, at 10 µM, stronger effect = higher value, 100 means same as DMSO control

- compound: "O=C(Nc1c2c(nn1-c1ccccc1)CS(=O)C2)c1ccco1 (centres undefined)"
  unit.annotation: "%"
  GFP response relative to DMSO: 95.4
- compound: "O=C(O)CCCn1nc(-c2ccccc2)c2ccccc21"
  unit.annotation: "%"
  GFP response relative to DMSO: 111
- compound: "COc1cc(CCN2C(=O)c3cccc4cccc(c34)C2=O)c(S(=O)(=O)NCCCO)cc1OC"
  unit.annotation: "%"
  GFP response relative to DMSO: 94.6
- compound: "O=C(/C=C/c1cc(Br)ccc1O)c1ccco1"
  unit.annotation: "%"
  GFP response relative to DMSO: 153
- compound: "CCOC(=O)Cc1csc(NC(=O)COc2ccc(N(C)S(=O)(=O)c3cccs3)cc2)n1"
  unit.annotation: "%"
  GFP response relative to DMSO: 98.3
- compound: "O=C1CC(SCc2nc3ccccc3[nH]2)C(=O)N1c1ccc(F)cc1 (centres undefined)"
  unit.annotation: "%"
  GFP response relative to DMSO: 109
- compound: "N=C1S/C(=C\\c2ccco2)C(=O)N1c1nccs1"
  unit.annotation: "%"
  GFP response relative to DMSO: 168
- compound: "COCCCN(C(=O)c1ccco1)c1nc(-c2cc(OC)ccc2OC)cs1"
  unit.annotation: "%"
  GFP response relative to DMSO: 100
- compound: "COc1ccccc1CNc1nc(S(=O)(=O)c2ccccc2)c(Cl)s1"
  unit.annotation: "%"
  GFP response relative to DMSO: 109
- compound: "Oc1c(Br)cc(Br)cc1C=NCc1ccccc1"
  unit.annotation: "%"
  GFP response relative to DMSO: 137
- compound: "NC(=O)CSCc1c(Cl)cccc1Cl"
  unit.annotation: "%"
  GFP response relative to DMSO: 108
- compound: "COc1cccc(C(=O)Nc2ccc(C)cc2)c1"
  unit.annotation: "%"
  GFP response relative to DMSO: 101
- compound: "COc1ccc(C(=O)/C=C2/C(=O)Nc3ccccc32)c(OC)c1"
  unit.annotation: "%"
  GFP response relative to DMSO: 139
- compound: "CC1=CCC(C(=O)O)C(C(=O)Nc2ccc(-c3nc4ccc(C)cc4s3)cc2)C1 (centres undefined)"
  unit.annotation: "%"
  GFP response relative to DMSO: 96.2
- compound: "O=C(c1ccc(Cl)cc1)N1CCN(c2cccc3[nH]ccc23)CC1"
  unit.annotation: "%"
  GFP response relative to DMSO: 105
- compound: "CCn1c(=O)c(C(=O)NC(C)C)c(O)c2ccccc21"
  unit.annotation: "%"
  GFP response relative to DMSO: 101
- compound: "CCOC(=O)C1C(=O)C=C(c2ccc(C)cc2)CC1c1ccco1 (centres undefined)"
  unit.annotation: "%"
  GFP response relative to DMSO: 112
- compound: "CC(=O)Nc1cccc(Oc2ccc(-c3noc(C)n3)cc2)c1"
  unit.annotation: "%"
  GFP response relative to DMSO: 102
- compound: "O=C(O)c1ccc2ccc3ccccc3c2c1"
  unit.annotation: "%"
  GFP response relative to DMSO: 98.4
- compound: "C/C(=N\\NC(=O)c1cccc(Br)c1)c1ccccn1"
  unit.annotation: "%"
  GFP response relative to DMSO: 166
- compound: "Cc1ccc(S(=O)(=O)N2CCCC2C(=O)OCc2ccco2)cc1 (centres undefined)"
  unit.annotation: "%"
  GFP response relative to DMSO: 92.1
- compound: "COc1ccc(C2CC(c3cccs3)=NN2S(=O)(=O)c2ccc(C)cc2)cc1 (centres undefined)"
  unit.annotation: "%"
  GFP response relative to DMSO: 107
- compound: "O=C1C=CC(=O)N1N(c1ccccc1)c1ccccc1"
  unit.annotation: "%"
  GFP response relative to DMSO: 208
- compound: "O=S(=O)(Nc1nc2ccccc2nc1Cl)c1ccc2ccccc2c1"
  unit.annotation: "%"
  GFP response relative to DMSO: 97.3
